Every entry's value here was drawn from patent US20260085062A1.

Let's look at some compounds and their measured pIC50.
Target: intracellular CK2α (Homo sapiens, UniProt P19784)
Construct: host or cells: HCT116 (ATCC CCL-247)
Sequence (P19784 whole entry): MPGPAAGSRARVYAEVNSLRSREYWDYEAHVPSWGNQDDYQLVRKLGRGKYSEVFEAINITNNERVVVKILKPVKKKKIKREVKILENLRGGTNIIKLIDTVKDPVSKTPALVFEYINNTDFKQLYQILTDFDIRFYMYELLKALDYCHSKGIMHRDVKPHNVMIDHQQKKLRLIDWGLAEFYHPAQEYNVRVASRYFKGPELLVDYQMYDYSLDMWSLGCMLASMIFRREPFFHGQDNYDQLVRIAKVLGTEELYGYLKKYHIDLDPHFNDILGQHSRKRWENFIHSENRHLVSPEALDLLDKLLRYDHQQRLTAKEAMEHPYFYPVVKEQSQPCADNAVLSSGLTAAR
Assay: Cell-based NanoBRET assay for inhibitor binding to intracellular CK2α
Conditions: HCT116 cells transiently transfected with CSNK2A2-NanoLuc fusion vector; Tracer K-5; 2 h; read-out: Assay 3: NanoBRET ™ assay for binding to intracellular CK2α
Give only the number. pIC50 is defined as minus log10 of concentration in molar units.

Below are worked cases with known answers.
Cc1n[nH]cc1-c1cc(NCCCNC(=O)CCNCc2ccc(-c3ccccc3)c(Cl)c2)c2cn[nH]c2c1 [Example 27] = 6.49
FC(F)(F)c1ccc2[nH]c(CNCCCCOCCNc3cc(-n4cnnc4)cc4[nH]nnc34)cc2c1 [Example 142] = 5.41
O=C(CCNCc1ccc(OC(F)(F)F)c(Cl)c1)NCCCNc1cc(-c2cnco2)cc2[nH]ncc12 [Example 164] = 6.87
Cc1nncn1-c1cc(NCCOCCCCNCc2cc3cc(C(F)(F)F)ccc3[nH]2)c2cn[nH]c2c1 [Example 86] = 5.87

Now look at this one.
In plain terms, O=C(CCNCc1ccc(-c2ccccc2)c(Cl)c1)NCCCNc1cc(-n2cnnc2)cc2[nH]ncc12 [Example 11] has a documented pIC50 of 6.60

* * *

Biological target: intracellular CK2α (Homo sapiens, UniProt P19784)
Test: Cell-based NanoBRET assay for inhibitor binding to intracellular CK2α
Conditions: HCT116 cells transiently transfected with CSNK2A2-NanoLuc fusion vector; Tracer K-5; 2 h; read-out: Assay 3: NanoBRET ™ assay for binding to intracellular CK2α
Let's look at some compounds and their measured pIC50.
Give only the number. pIC50 is defined as minus log10 of concentration in molar units.

OCc1cc(CNC2CC(COCCOc3cc(-c4cnnc(O)c4)cc4[nH]ncc34)C2)cc(OC(F)(F)F)c1 (stereo not shown) = 5.53
N#Cc1cc(NCCCNC(=O)CCNCc2ccc(OC(F)(F)F)c(Cl)c2)c2cn[nH]c2c1 = 5.96
Cc1[nH]ncc1-c1cc(NCCCNC(=O)CCNCc2ccc(OC(F)(F)F)c(Cl)c2)c2cn[nH]c2c1 = 6.15

Now look at this one.
Test item O=C(CNCCCCNCc1ccc(OC(F)(F)F)c(Cl)c1)Nc1cc(-n2cnnc2)cc2[nH]ncc12 ; intracellular CK2α (Homo sapiens, UniProt P19784); reported pIC50 was 5.42

* * *

Entries with reported log10 IC50 on CK2α (Homo sapiens)
Sequence (P68400 2-329): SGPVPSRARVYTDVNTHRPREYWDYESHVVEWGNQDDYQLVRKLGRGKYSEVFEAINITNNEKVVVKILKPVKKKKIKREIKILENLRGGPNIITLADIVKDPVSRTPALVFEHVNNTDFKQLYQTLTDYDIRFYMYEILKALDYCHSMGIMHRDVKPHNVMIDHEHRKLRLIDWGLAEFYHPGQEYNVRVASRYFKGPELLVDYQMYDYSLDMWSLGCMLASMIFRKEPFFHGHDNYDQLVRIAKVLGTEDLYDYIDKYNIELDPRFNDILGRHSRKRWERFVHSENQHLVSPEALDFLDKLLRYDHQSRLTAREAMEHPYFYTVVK
Values below are the log10 of the recorded IC50, with nM as the unit.

O=C(CCNCc1ccc(-c2ccccc2)c(Cl)c1)NCCCNc1cc(-c2nn[nH]n2)cc2[nH]ncc12 = -0.48

Test item Cc1cc(CC#N)cc(CNCCCCOC2CN(c3cc(-c4cnoc4)cc4[nH]ncc34)C2)c1 ; CK2α (Homo sapiens); reported log10 IC50 was 1.65

Test item Nc1cc(-c2cc(NCCCNC(=O)CCNCc3ccc(OC(F)(F)F)c(Cl)c3)c3cn[nH]c3c2)cnn1 ; CK2α (Homo sapiens); reported log10 IC50 was -0.30

Test item N#CCc1cc(F)cc(CNCCCCOC2CN(c3cc(-n4cnnc4)cc4[nH]ncc34)C2)c1 ; CK2α (Homo sapiens); reported log10 IC50 was 1.42

Test item Cn1c(CNCCC(=O)NCCCNc2cc(-n3cnnc3)cc3[nH]ncc23)cc2cc(C(F)(F)F)ccc21 ; CK2α (Homo sapiens); reported log10 IC50 was -0.28

Test item c1cc2[nH]c(CNCCCCOCCNc3cc(-n4cnnc4)cc4[nH]ncc34)cc2cc1OC1CCC1 ; CK2α (Homo sapiens); reported log10 IC50 was -0.48

Test item FC(F)(F)c1ccc2[nH]c(CNCCCCOCCNc3cc(-n4cnnc4)cc4[nH]ncc34)cc2c1 ; CK2α (Homo sapiens); reported log10 IC50 was -0.36

Test item O=C(CCNCc1ccc(-c2ccccc2)c(Cl)c1)NCCCNc1cc(-c2cccnc2)cc2[nH]ncc12 ; CK2α (Homo sapiens); reported log10 IC50 was 1.31

* * *

Let's look at some compounds and their measured IC50.
Molecular target: intracellular CK2α (Homo sapiens, UniProt P19784)
Assay: Cell-based NanoBRET assay for inhibitor binding to intracellular CK2α
Details: HCT116 cells transiently transfected with CSNK2A2-NanoLuc fusion vector; Tracer K-5; 2 h; read-out: Assay 3: NanoBRET ™ assay for binding to intracellular CK2α
Write the value in nM as a bare number.

Test item Nc1cc(-c2cc(NCCCNC(=O)CCNCc3ccc(OC(F)(F)F)c(Cl)c3)c3cn[nH]c3c2)cnn1 ; intracellular CK2α (Homo sapiens, UniProt P19784); reported IC50 was 516

Test item N#CCc1cc(Cl)cc(CNCCCCOC2CN(c3cc(-c4cnoc4)cc4[nH]ncc34)C2)c1 ; intracellular CK2α (Homo sapiens, UniProt P19784); reported IC50 was 840

* * *

Let's look at some molecules and their measured pIC50.
Target: intracellular CK2α (Homo sapiens, UniProt P19784)
Experiment: Cell-based NanoBRET assay for inhibitor binding to intracellular CK2α
Settings: HCT116 cells transiently transfected with CSNK2A2-NanoLuc fusion vector; Tracer K-5; 2 h; read-out: Assay 3: NanoBRET ™ assay for binding to intracellular CK2α
Give only the number. pIC50 is defined as minus log10 of concentration in molar units.

Test item N#CCc1cccc(CNCCC(=O)NCCCNc2cc(-n3cnnc3)cc3[nH]ncc23)c1 ; intracellular CK2α (Homo sapiens, UniProt P19784); reported pIC50 was 4.92

Test item Cn1c(CNCCCCOCCNc2cc(-n3cnnc3)cc3[nH]ncc23)cc2cc(C(F)(F)F)ccc21 ; intracellular CK2α (Homo sapiens, UniProt P19784); reported pIC50 was 7.14

Test item Cc1c(-c2ccncc2)cc(NCCCNC(=O)CCNCc2ccc(OC(F)(F)F)c(Cl)c2)c2cn[nH]c12 ; intracellular CK2α (Homo sapiens, UniProt P19784); reported pIC50 was 5.60

Test item O=C(O)CCc1cc(NCCOCCCCNCc2cc(F)c(OC(F)(F)F)c(F)c2)c2cn[nH]c2c1 ; intracellular CK2α (Homo sapiens, UniProt P19784); reported pIC50 was 6.85

Test item O=C(CCNCc1ccc(-c2ccccc2)c(Cl)c1)NCCCNc1cc(-c2cn[nH]n2)cc2[nH]ncc12 ; intracellular CK2α (Homo sapiens, UniProt P19784); reported pIC50 was 7.03

Test item Cc1nc(-c2cc(NCCCNC(=O)CCNCc3ccc(-c4ccccc4)c(Cl)c3)c3cn[nH]c3c2)c[nH]1 ; intracellular CK2α (Homo sapiens, UniProt P19784); reported pIC50 was 5.07

* * *

Biological target: CLK2 (Homo sapiens, UniProt P49760)
Sequence (P49760 whole entry): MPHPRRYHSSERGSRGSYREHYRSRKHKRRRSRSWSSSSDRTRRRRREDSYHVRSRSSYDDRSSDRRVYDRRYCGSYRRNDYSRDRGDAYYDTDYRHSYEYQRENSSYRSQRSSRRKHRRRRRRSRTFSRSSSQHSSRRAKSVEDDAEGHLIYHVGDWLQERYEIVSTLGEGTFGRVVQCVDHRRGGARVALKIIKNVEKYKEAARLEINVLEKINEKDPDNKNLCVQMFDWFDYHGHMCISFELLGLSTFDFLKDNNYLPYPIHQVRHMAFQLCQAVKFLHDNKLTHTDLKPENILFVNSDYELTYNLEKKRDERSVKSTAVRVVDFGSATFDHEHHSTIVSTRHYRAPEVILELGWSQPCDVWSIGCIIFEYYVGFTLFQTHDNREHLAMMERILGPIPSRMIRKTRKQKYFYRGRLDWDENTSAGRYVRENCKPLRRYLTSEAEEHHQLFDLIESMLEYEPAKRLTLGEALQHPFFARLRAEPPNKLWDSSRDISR
Endpoint Label: IC50 (µM)
Write the value in µM as a bare number.

Fc1cc(CNCCCCOC2CN(c3cc(-c4cnoc4)cc4[nH]ncc34)C2)ccc1OC(F)(F)F = 0.23
C[C@@H](CCCOCCNc1cc(-c2cnoc2)cc2[nH]ncc12)NCc1cc(OC(F)(F)F)cc(C(N)=O)c1 = 0.301
Cc1cc(CC#N)cc(CNCCCCOC2CN(c3cc(-c4cnoc4)cc4[nH]ncc34)C2)c1 = 0.209
OCCOc1cc(CNC2CC(COCCNc3cc(-c4cnns4)cc4[nH]ncc34)C2)cc(OC(F)(F)F)c1 (stereo not drawn) = 0.214

In plain terms, OCc1cc(CNC2CC(COCCOc3cc(-c4cnnc(O)c4)cc4[nH]ncc34)C2)cc(OC(F)(F)F)c1 (stereo not drawn) has a documented IC50 of 0.594

In plain terms, Cc1cnccc1-c1cc(NCCCNC(=O)CCNCc2ccc(OC(F)(F)F)c(Cl)c2)c2cn[nH]c2c1 has a documented IC50 of 7.33

In plain terms, Cn1c(CNCCCCOCCNc2cc(-n3cnnc3)cc3[nH]ncc23)cc2cc(C(F)(F)F)ccc21 has a documented IC50 of 0.225

In plain terms, FC(F)(F)Oc1ccc(CNCCCCOCCNc2cc(-n3cnnc3)cc3[nH]nnc23)cc1Cl has a documented IC50 of 18.1

In plain terms, N#Cc1cc(NCCCNC(=O)CCNCc2ccc(-c3ccccc3)c(Cl)c2)c2cn[nH]c2c1 has a documented IC50 of 0.133

* * *

Target: CLK2 (Homo sapiens, UniProt P49760)
Let's look at some compounds and their measured pIC50.
Give only the number. pIC50 is defined as minus log10 of concentration in molar units.

In plain terms, c1cc(-c2cc(OCCOCCCCNCc3cc4cc(OC5CCC5)ccc4[nH]3)c3cn[nH]c3c2)cnn1 has a documented pIC50 of 5.32

* * *

Biological target: intracellular CK2α (Homo sapiens)
Assay: Cell-based NanoBRET assay for inhibitor binding to intracellular CK2α
Conditions: HCT116 cells transiently transfected with CSNK2A2-NanoLuc fusion vector; Tracer K-5; 2 h; read-out: Assay 3: NanoBRET ™ assay for binding to intracellular CK2α
Let's look at some compounds and their measured IC50.
Write the value in µM as a bare number.

Below are worked cases with known answers.
Cc1nc[nH]c1-c1cc(NCCCNC(=O)CCNCc2ccc(-c3ccccc3)c(Cl)c2)c2cn[nH]c2c1 [Example 91] = 4.59
O=C(CCNCc1ccc(OC(F)(F)F)c(Cl)c1)NCCCNc1cc(-n2cnnc2)cc2cn[nH]c12 [Example 83] = 2.26
Cn1c(CNCCCCOCCNc2cc(-n3cnnc3)cc3[nH]ncc23)cc2ccc(Cl)cc21 [Example 50] = 0.153
OCc1cc(Cl)cc(CNCCCCOC2CN(c3cc(-c4ccnnc4)cc4[nH]ncc34)C2)c1 [Example 111] = 14.2
N#Cc1cc(CNCCC(=O)NCCCNc2cc(-n3cnnc3)cc3[nH]ncc23)ccc1C1CC1 [Example 45] = 6.38
O=C(CCNCCCNCc1ccc(OC(F)(F)F)c(Cl)c1)Nc1cc(-n2cnnc2)cc2[nH]ncc12 [Example 66] = 15.6

In plain terms, FC(F)(F)c1ccc2[nH]c(CNCCCCOCCOc3cc(-c4ccnnc4)cc4[nH]ncc34)cc2c1 [Example 56] has a documented IC50 of 0.387

In plain terms, FC(F)(F)c1ccc2[nH]c(CNCCCCOC3CN(c4cc(-c5ccnnc5)cc5[nH]ncc45)C3)cc2c1 [Example 140] has a documented IC50 of 2.8

In plain terms, O=C(CCNCc1ccc(-c2ccccc2)c(Cl)c1)NCCCNc1cc(-c2nn[nH]n2)cc2[nH]ncc12 [Example 79] has a documented IC50 of 5.09
